- Test system: TERT protein
- assay.explanation: Fluorescence polarization binding assay (inhibitory activity of selected Table 9 compounds)
- Design: species or system Tribolium castaneum
- setup.conditions: compound 5 μM; TERT-Chim21m complex 250 nM, cyanine 5-dCTP 10 nM; footnote: observed value corresponds to 50% of the actual inhibition value
property.label: Inhibition at 5 μM (%)*
# number only, unit % dropped from output

**Query** # return Inhibition at 5 μM (%)* of `O=C(Nn1cnnc1)c1cc(Br)ccc1Cl` (system: TERT protein)
**Result** 11.97

**Query** # return Inhibition at 5 μM (%)* of CC(O)CNC(=O)C(=O)Nc1ccc2c(c1)OCO2 (stereo not drawn) (system: TERT protein)
**Result** 6.67

**Query** # return Inhibition at 5 μM (%)* of `CCOC(=O)c1c(NC(=O)/C=C/C(N)=O)sc(C)c1C` (system: TERT protein)
**Result** 19.23

**Query** # return Inhibition at 5 μM (%)* of `COc1cc(CNCc2ccccc2)cc(Cl)c1OCC(N)=O.Cl` (system: TERT protein)
**Result** 4.96

**Query** # return Inhibition at 5 μM (%)* of `NC(=O)CCN1C(=O)c2cccc3cccc(c23)C1=O` (system: TERT protein)
**Result** 18.11

**Query** # return Inhibition at 5 μM (%)* of `COc1cc(CNCCc2ccccc2)cc(Br)c1OCC(N)=O` (system: TERT protein)
**Result** 12.21

**Query** # return Inhibition at 5 μM (%)* of `CCOc1cc(CNCc2ccco2)cc(Br)c1OCC(N)=O.Cl` (system: TERT protein)
**Result** 16.14

**Query** # return Inhibition at 5 μM (%)* of COc1cc(CNC2C3CC4CC(C3)CC2C4)cc(Cl)c1OCC(N)=O (stereo not drawn) (system: TERT protein)
**Result** 13.73

**Query** # return Inhibition at 5 μM (%)* of `COc1cc(CNCCN2CCOCC2)cc(Br)c1OCC(N)=O.Cl.Cl` (system: TERT protein)
**Result** 18.27

**Query** # return Inhibition at 5 μM (%)* of O=C(NCCCO)C1CCCN(S(=O)(=O)c2ccc3ccccc3c2)C1 (stereo not drawn) (system: TERT protein)
**Result** 13.44

**Query** # return Inhibition at 5 μM (%)* of `CCOc1cc(CNCc2cccnc2)cc(Cl)c1OCC(N)=O.Cl` (system: TERT protein)
**Result** 14.87

**Query** # return Inhibition at 5 μM (%)* of `CCOc1cc(CNCc2cccs2)cc(Cl)c1OCC(N)=O.Cl` (system: TERT protein)
**Result** 17.68
